# TEST PROTOCOL: Phase I five-way crossover: intranasal and sublingual naloxone spray 8 mg and 16 mg versus 0.4 mg intramuscular, plasma concentrations
# Type: in vivo, human subjects
# STATED CONDITIONS: human, other: sublingual; 8 mg SL; plasma, mean ± SD
QUANTITY: concentration at 1 h
Answer format: value, then unit.

Qu. Endpoint output: concentration at 1 h of C=CCN1CC[C@]23c4c5ccc(O)c4O[C@H]2C(=O)CC[C@@]3(O)[C@H]1C5 . Value?
Ans. 1.61 ng/mL

----------
# TEST PROTOCOL: Phase I five-way crossover: intranasal and sublingual naloxone spray 8 mg and 16 mg versus 0.4 mg intramuscular, plasma concentrations
# Type: in vivo, human subjects
# STATED CONDITIONS: human, other: sublingual; 16 mg SL; plasma, mean ± SD
QUANTITY: concentration at 0.17 h (ng/mL)
Answers are plain numbers, in ng/mL.

Qu. Could you share which concentration at 0.17 h value was measured for C=CCN1CC[C@]23c4c5ccc(O)c4O[C@H]2C(=O)CC[C@@]3(O)[C@H]1C5 ?
Ans. 3.63

----------
# TEST PROTOCOL: Phase I five-way crossover: intranasal and sublingual naloxone spray 8 mg and 16 mg versus 0.4 mg intramuscular, plasma concentrations
# Assay type: in vivo, human subjects
# STATED CONDITIONS: human, intramuscular; 0.4 mg IM; plasma, mean ± SD
QUANTITY: concentration at 0.5 h (ng/mL)
Answers are plain numbers, in ng/mL.

Qu. Give its concentration at 0.5 h value. Item: C=CCN1CC[C@]23c4c5ccc(O)c4O[C@H]2C(=O)CC[C@@]3(O)[C@H]1C5 [naloxone, Naloxone]
Ans. 0.62

----------
# TEST PROTOCOL: Phase I five-way crossover: intranasal and sublingual naloxone spray 8 mg and 16 mg versus 0.4 mg intramuscular, plasma concentrations
# Type: in vivo, human subjects
# STATED CONDITIONS: human, other: intranasal; 8 mg IN; plasma, mean ± SD
QUANTITY: concentration at 0.1 h (ng/mL)
Numbers only, in ng/mL.

Qu. Tell me the measured concentration at 0.1 h of C=CCN1CC[C@]23c4c5ccc(O)c4O[C@H]2C(=O)CC[C@@]3(O)[C@H]1C5 , please.
Ans. 18.8

----------
# TEST PROTOCOL: Phase I five-way crossover: intranasal and sublingual naloxone spray 8 mg and 16 mg versus 0.4 mg intramuscular, plasma concentrations
# Type: in vivo, human subjects
# STATED CONDITIONS: human, other: sublingual; 16 mg SL; plasma, mean ± SD; read-out: Conc. @ 0.25 h
QUANTITY: concentration at […] (ng/mL)
Give bare numbers, in ng/mL.

Qu. Recorded concentration at […] for C=CCN1CC[C@]23c4c5ccc(O)c4O[C@H]2C(=O)CC[C@@]3(O)[C@H]1C5 , please?
Ans. 4.39

----------
# TEST PROTOCOL: Phase I five-way crossover: intranasal and sublingual naloxone spray 8 mg and 16 mg versus 0.4 mg intramuscular, plasma concentrations
# Type: in vivo, human subjects
# STATED CONDITIONS: human, intramuscular; 0.4 mg IM; plasma, mean ± SD
QUANTITY: concentration at 0.03 h (ng/mL)
Answers are plain numbers, in ng/mL.

Qu. Entry under review: C=CCN1CC[C@]23c4c5ccc(O)c4O[C@H]2C(=O)CC[C@@]3(O)[C@H]1C5 [naloxone, Naloxone] . Reported concentration at 0.03 h?
Ans. 0.15
